Just for reference, the RNAGym collection of RNA variant scans (doi:10.7554/elife.80360) is where these values come from.

B1: HDV Ribozyme (parent)
chain: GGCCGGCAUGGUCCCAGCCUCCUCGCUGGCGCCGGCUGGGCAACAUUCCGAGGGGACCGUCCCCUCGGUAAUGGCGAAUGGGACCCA

- Variants of: B1
- procedure-text: self-cleavage, relative activity (ratio to wild type); higher = more cleavage; co-transcriptional
Classification by self-cleavage follows these ranges: 1 = under 0.2, 2 = from 0.2 up to 0.6, 3 = 0.6 and over

The examples below pair each entry with its known result.
Query string: Each variant maps to one class by self-cleavage. Which class for C26G C44U ?
Result string: 3

Query string: Each variant maps to one class by self-cleavage. Which class for G53A C75A ?
Result string: 2

Query string: Each variant maps to one class by self-cleavage. Which class for C58A C85U ?
Result string: 3

Query string: Each variant maps to one class by self-cleavage. Which class for G25U C66G ?
Result string: 1

Query string: Each variant maps to one class by self-cleavage. Which class for G10C U20C ?
Result string: 1

New cases:
Query string: Each variant maps to one class by self-cleavage. Which class for C18G C57G ?
Result string: 1

Query string: Each variant maps to one class by self-cleavage. Which class for G34C C58U ?
Result string: 1

Query string: Each variant maps to one class by self-cleavage. Which class for G28U A87U ?
Result string: 1

Query string: Each variant maps to one class by self-cleavage. Which class for C4G U65G ?
Result string: 2

Query string: Each variant maps to one class by self-cleavage. Which class for C30A C62A ?
Result string: 2

Query string: Each variant maps to one class by self-cleavage. Which class for C14A C66A ?
Result string: 2

Query string: Each variant maps to one class by self-cleavage. Which class for G11C C13A ?
Result string: 1

Query string: Each variant maps to one class by self-cleavage. Which class for G50U C86G ?
Result string: 3

Query string: Each variant maps to one class by self-cleavage. Which class for C4U A83U ?
Result string: 1

Query string: Each variant maps to one class by self-cleavage. Which class for U27C G34U ?
Result string: 1

Query string: Each variant maps to one class by self-cleavage. Which class for G50C A77G ?
Result string: 3

Query string: Each variant maps to one class by self-cleavage. Which class for G73U U79C ?
Result string: 1

Query string: Each variant maps to one class by self-cleavage. Which class for A16G G40C ?
Result string: 1

Query string: Each variant maps to one class by self-cleavage. Which class for A42C A51U ?
Result string: 2

Query string: Each variant maps to one class by self-cleavage. Which class for C24A G38U ?
Result string: 1

Query string: Each variant maps to one class by self-cleavage. Which class for C66G G81A ?
Result string: 2

Query string: Each variant maps to one class by self-cleavage. Which class for G67A U72A ?
Result string: 2

Query string: Each variant maps to one class by self-cleavage. Which class for C15G G39U ?
Result string: 1

Query string: Each variant maps to one class by self-cleavage. Which class for A16C U47A ?
Result string: 3

Query string: Each variant maps to one class by self-cleavage. Which class for G35A C64G ?
Result string: 2

Query string: Each variant maps to one class by self-cleavage. Which class for C61U C86A ?
Result string: 3

Query string: Each variant maps to one class by self-cleavage. Which class for C48G A70U ?
Result string: 2

Query string: Each variant maps to one class by self-cleavage. Which class for A51G U65G ?
Result string: 3

Query string: Each variant maps to one class by self-cleavage. Which class for C32U C58G ?
Result string: 3

Query string: Each variant maps to one class by self-cleavage. Which class for G53C C84G ?
Result string: 3

Query string: Each variant maps to one class by self-cleavage. Which class for G50C U72A ?
Result string: 3

Query string: Each variant maps to one class by self-cleavage. Which class for G50C G74U ?
Result string: 2
